- assaySystem: Cytochrome P450 3A5 (Homo sapiens, UniProt P20815)
- Sequence (P20815 whole entry): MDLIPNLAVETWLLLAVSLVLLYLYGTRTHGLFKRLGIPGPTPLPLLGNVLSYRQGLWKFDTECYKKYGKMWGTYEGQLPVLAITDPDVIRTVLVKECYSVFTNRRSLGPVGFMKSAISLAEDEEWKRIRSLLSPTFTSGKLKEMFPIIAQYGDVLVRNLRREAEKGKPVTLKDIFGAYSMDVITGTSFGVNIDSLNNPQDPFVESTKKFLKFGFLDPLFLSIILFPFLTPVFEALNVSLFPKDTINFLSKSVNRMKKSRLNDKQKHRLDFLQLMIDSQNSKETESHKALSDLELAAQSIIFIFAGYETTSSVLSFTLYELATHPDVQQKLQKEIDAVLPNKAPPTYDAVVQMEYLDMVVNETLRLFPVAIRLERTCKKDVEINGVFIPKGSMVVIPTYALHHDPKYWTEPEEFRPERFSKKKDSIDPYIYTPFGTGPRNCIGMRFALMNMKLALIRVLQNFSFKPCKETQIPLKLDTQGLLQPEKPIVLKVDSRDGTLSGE
- assayInfo: Inhibition of human recombinant CYP3A5 using testosterone as substrate assessed as testosterone 6-beta-hydroxylation preincubated up to 30 mins with NADPH followed by substrate addition measured after 10 mins by LC/MS/MS analysis
pKi: −log10 of the molar value.
experimentalReadout: pKi

entrySmiles: CS(=O)(=O)CCNCc1ccc(-c2ccc3ncnc(Nc4ccc(OCc5cccc(F)c5)c(Cl)c4)c3c2)o1
endpointResult: 4.42

* * *

- assaySystem: CYP3A4 (Homo sapiens)
- Sequence (P08684 whole entry): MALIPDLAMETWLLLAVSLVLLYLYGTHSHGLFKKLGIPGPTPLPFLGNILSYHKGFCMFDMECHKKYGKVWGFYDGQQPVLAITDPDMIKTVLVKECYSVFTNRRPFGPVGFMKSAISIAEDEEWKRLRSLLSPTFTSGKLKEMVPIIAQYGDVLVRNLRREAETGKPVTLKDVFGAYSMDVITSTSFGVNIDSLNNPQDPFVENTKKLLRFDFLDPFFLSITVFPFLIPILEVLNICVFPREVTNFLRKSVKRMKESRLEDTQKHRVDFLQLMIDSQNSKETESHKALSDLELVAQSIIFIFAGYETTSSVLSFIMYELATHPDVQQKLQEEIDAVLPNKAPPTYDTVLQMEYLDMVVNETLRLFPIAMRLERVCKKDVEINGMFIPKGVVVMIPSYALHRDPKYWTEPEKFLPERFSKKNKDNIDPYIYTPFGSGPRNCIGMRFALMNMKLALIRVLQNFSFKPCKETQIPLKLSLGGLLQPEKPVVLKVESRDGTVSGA
- assayInfo: Ratio of Kinact to Ki for recombinant human CYP3A4 using testosterone as substrate
- Assay type: ADME
- details: recombinant human CYP3A4, probe testosterone

entrySmiles: CS(=O)(=O)CCNCc1ccc(-c2ccc3ncnc(Nc4ccc(OCc5cccc(F)c5)c(Cl)c4)c3c2)o1
kinact/KI: 197 M⁻¹ s⁻¹

// data source = ChEMBL document CHEMBL3526016
